Catalogue of percentage inhibition, product PAF, hLPCAT1 readings, one per entry.
Target: hLPCAT1 (Homo sapiens, UniProt Q8NF37)
Construct: expressed in transfected cells
Sequence (Q8NF37 1-534): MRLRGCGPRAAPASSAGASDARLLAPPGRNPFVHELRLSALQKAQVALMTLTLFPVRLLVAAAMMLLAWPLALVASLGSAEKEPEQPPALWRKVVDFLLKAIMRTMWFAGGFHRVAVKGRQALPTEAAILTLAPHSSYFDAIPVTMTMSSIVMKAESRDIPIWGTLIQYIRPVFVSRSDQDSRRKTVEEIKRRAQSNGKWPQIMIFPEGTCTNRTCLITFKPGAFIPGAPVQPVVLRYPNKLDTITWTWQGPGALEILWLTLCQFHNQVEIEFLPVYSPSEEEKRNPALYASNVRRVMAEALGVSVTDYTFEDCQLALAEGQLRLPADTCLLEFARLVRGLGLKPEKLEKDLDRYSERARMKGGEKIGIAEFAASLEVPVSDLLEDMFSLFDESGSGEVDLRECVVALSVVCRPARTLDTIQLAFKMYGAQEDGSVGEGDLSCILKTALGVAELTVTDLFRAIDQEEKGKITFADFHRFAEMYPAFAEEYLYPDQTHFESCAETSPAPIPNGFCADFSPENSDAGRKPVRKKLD
Test: lyso-PAFAT (acetyltransferase) activity assay, PAF product by LC-MS/MS
Assay type: biochemical
Conditions: 20 μM compound; microsomal fractions of nonstimulated CHO-S-PAFR cells; n = 3, mean ± SEM
Please respond with the number in percentage and leave the unit unwritten.

Example entries begin here.
smiles_structure=CCCOC(=O)c1ccc(N2C(=O)C(Cl)=C(Cl)C2=O)cc1 tested_system="hLPCAT1 (Homo sapiens, UniProt Q8NF37)" unit_abbrev=percentage numeric_value=76.1
smiles_structure=CC(C)OC(=O)c1ccc(N2C(=O)C(Cl)=C(Cl)C2=O)cc1 tested_system="hLPCAT1 (Homo sapiens, UniProt Q8NF37)" unit_abbrev=percentage numeric_value=75.9
smiles_structure=CCCCOC(=O)c1ccc(N2C(=O)C(Cl)=C(Cl)C2=O)cc1 tested_system="hLPCAT1 (Homo sapiens, UniProt Q8NF37)" unit_abbrev=percentage numeric_value=78.6

Prompt line: What does the record list as percentage inhibition, product PAF, hLPCAT1 for CC(C)OC(=O)c1ccc(N2C(=O)C(Cl)=C(Nc3ccccc3O)C2=O)cc1 ?
Response line: 11.9

###

Catalogue of IC50 readings, one per entry.
Target: hLPCAT1 (Homo sapiens)
Construct: expressed in transfected cells
Test: acyltransferase activity assay, DPPC product by LC-MS/MS
Assay type: biochemical
Conditions: 0, 0.2, 0.6, 2, 6 and 20 μM of each compound in triplicate; LC-MS/MS; read-out: IC50, product DPPC, enzyme hLPCAT1

Example entries begin here.
compound="CC(C)OC(=O)c1ccc(N2C(=O)C(Cl)=C(Nc3ccccc3O)C2=O)cc1 [TSI-07]" tested_system="hLPCAT1 (Homo sapiens)" result="> 20 µM"
compound="CCCCOC(=O)c1ccc(N2C(=O)C(Cl)=C(Cl)C2=O)cc1 [TSI-11]" tested_system="hLPCAT1 (Homo sapiens)" result="> 20 µM"
compound="CC(C)OC(=O)c1ccc(N2C(=O)C(Cl)=C(N3CCOCC3)C2=O)cc1 [TSI-06]" tested_system="hLPCAT1 (Homo sapiens)" result="> 20 µM"

Prompt line: What does the record list as IC50 for CC(C)OC(=O)c1ccc(N2C(=O)C(Cl)=C(Cl)C2=O)cc1 [TSI-01] ?
Response line: > 20 µM

Prompt line: Subsequent entry: COc1ccc(Cl)cc1N1C(=O)C(Cl)=C(Cl)C1=O [TSI-03]
Response line: > 20 µM
